# test: qHTS Assay for Lipid Storage Modulators in Drosophila S3 Cells
# setup conditions: BODIPY lipid droplet fluorescence, 18-24 h, cells fed with added oleic acid; series mostly up to 46.1 µM
Out of some 320,000 compounds screened, about 2,100 (0.66%) were called active. Roughly 53% stayed inconclusive and do not appear here. The call rests on the fitted dose curve; in most records, active means well fitted inhibition curve with a large enough effect in the signal ratio, with a control signal flat (not every such curve was filed as active); inconclusive means small, poorly fitted or top-dose-only effect, or effect the other way, or a change in a side signal; inactive means flat fitted curve, though single readings scatter; the % refers to the signal ratio. The full list was thinned out, with actives kept by preference.
Outcomes: True for active, False for inactive

> print(dat)
                                    compound  label
 1          CC(C)Nc1nc(NC(C)C)nc(SCC(N)=O)n1  False
 2           O=C(NCCc1ccccc1)C(=O)NN=C1CCCC1   True
 3  Cc1ccc(NC(=O)CCN2C(=O)C3C4CCC(C4)C3C2=O)cc1[N+](=O)[O-] (configuration not stated)  False
 4  CSCc1ccc(C(=O)NC2CC(C)(C)Cc3c2cnn3-c2ccc(F)cc2)o1 (configuration not stated)   True
 5  O=C(O)C1CC=CCC1C(=O)Nc1cccc(F)c1 (configuration not stated)  False
 6     Cc1nn(Cc2ccc(C(=O)n3cccn3)o2)c(C)c1Br  False
 7   Cc1ccc(C)c(NC(=O)CN(C)C(=O)Cc2ccccc2)c1  False
 8              S=C(NCCc1ccccc1)NN=C1CCCCCC1  False
 9                             Cc1c(N)cccc1N  False
10  COc1ccccc1-[n+]1c(C)cc(/C=C2\Sc3ccccc3N2C)cc1C   True
11    Cc1ccc(C)c(NC(=O)CN(C)C(=O)c2sccc2C)c1   True
12          Cc1ccc(Nc2cc(C)nc3ncnn23)c(Cl)c1  False
